Entry source: ChEMBL document CHEMBL3124870

System: Staphylococcus aureus
Assay: Antibacterial activity against methicillin-resistant Staphylococcus aureus NRS194 assessed as inhibition of visible growth by broth microdilution method
Format: functional
Overview of reported MIC across a group of molecules:

Given the molecule CCCc1ccc(-c2nc(C)c(/C(C)=N/NC(=N)N)s2)cc1 , what is its reported MIC?
1.9 µg/mL

Given the molecule C/C(=N\NC(=N)N)c1sc(-c2ccc(C(C)(C)C)cc2)nc1C , what is its reported MIC?
2.6 µg/mL

Given the molecule C/C(=N\NC(=N)N)c1sc(-c2ccc3ccccc3c2)nc1C , what is its reported MIC?
1.9 µg/mL

Given the molecule C/C(=N\NC(=N)N)c1sc(-c2ccc(-c3ccccc3)cc2)nc1C , what is its reported MIC?
1.4 µg/mL

Given the molecule CCCCCCCc1ccc(-c2nc(C)c(/C(C)=N/NC(=N)N)s2)cc1 , what is its reported MIC?
3 µg/mL

Given the molecule CCCCCCCCCc1ccc(-c2nc(C)c(/C(C)=N/NC(=N)N)s2)cc1 , what is its reported MIC?
4.4 µg/mL

Given the molecule C/C(=N\NC(=N)N)c1sc(-c2ccc(C3CCCCC3)cc2)nc1C , what is its reported MIC?
0.7 µg/mL

Given the molecule CCCCCc1ccc(-c2nc(C)c(/C(C)=N/NC(=N)N)s2)cc1 , what is its reported MIC?
1.1 µg/mL

Continuing:
Given the molecule CCCCc1ccc(-c2nc(C)c(/C(C)=N/NC(=N)N)s2)cc1 , what is its reported MIC?
1.4 µg/mL

Given the molecule C/C(=N\NC(=N)N)c1sc(-c2ccc(C3=CCCCC3)cc2)nc1C , what is its reported MIC?
0.8 µg/mL
